// provenance: PubChem BioAssay (NCI)

Tested on: SF-295 CNS
Assay: NCI tumour cell line growth inhibition, 48 h
Measured TGI by item

> print(dat)
                                   compound  observed.property     result
1  CC(C)C(Sc1nc(-c2ccccc2)c(-c2ccccc2)[nH]1)C(=O)NN (stereo not given)                TGI   > 100 µM
2  CN(C)CC1C(=O)O[C@H]2[C@H]1CC/C(COC(=O)c1cc3ccccc3[nH]1)=C\CC[C@@]1(C)O[C@@H]21 (stereo not given in full)                TGI    18.5 µM
3  COC(=O)[C@]12CC=C3O[C@@H]4OC5(CCCCC5)O[C@@H]4C3[C@@H]1C(=O)CCC2=O (stereo not given in full)                TGI   > 100 µM
4  Cc1c(F)c(N)c2c(=O)cc(-c3ccc(N)c(F)c3)oc2c1F                TGI    43.2 µM
5            O=C1C=CC[C@H](/C=C/c2ccccc2)O1                TGI  > 40.9 µM
6  O=C1C=CC2(O)OCCN(CCO)C2=C1 (stereo not given) (tested in a mixture with another compound)                TGI   > 100 µM

Input line: Give the measured TGI of Cn1c(Cl)cn2c3nc4ccccc4nc3c(=O)c(C#N)c12 .
Output line: > 100 µM

Input line: Quick one: CN(C)CCCNc1c(C#N)[n+]([O-])c2cc(Cl)ccc2[n+]1[O-]
Output line: > 49.1 µM

Input line: Quick one: Nc1ccc(CCSSCCc2ccc(N)cc2)cc1
Output line: > 100 µM

Input line: Quick one: C=C1C(=O)O[C@H]2[C@H]1CCC(/C=N/c1ncc(Br)cc1N)=C\CC[C@@]1(C)O[C@@H]21
Output line: 24.3 µM

====

Measured TGI by item
System: HCC-2998 colon
Test: NCI tumour cell line growth inhibition, 48 h

These recorded examples may help you get a feel for the data.
molecule	TGI
C[C@]12CCC(=O)C(O)=C1CC[C@@H]1C2CC[C@]2(C)Nc3c(cnn3-c3ccccc3)CC12 (some centres undefined)	> 100 µM
O=S(Nc1ccccc1)c1ccc(Cl)c(Cl)c1 (centres undefined)	> 100 µM
CC(O)c1ccc[n+](Cc2ccccc2)c1 (centres undefined)	> 400 µM

Input line: Give the measured TGI of C[C@]12C[C@@H](c3ccccc3)Nc3ccccc3N1C(c1ccccc1)=NO2 .
Output line: > 100 µM

Input line: Quick one: CC1OC(OC2C(OC(=O)[C@@H]3CC(C)(C)C[C@@H]4C5=CC[C@@H]6[C@@]7(C)C[C@H](O)[C@H](OC8OC(CO)C(O)C(O)C8O)[C@@](C)(CO)C7[C@H](O)C[C@@]6(C)[C@]5(C)C[C@@H](O)[C@H]43)OCC(O)C2O)C(O)C(O)C1O (some centres undefined)
Output line: > 15 µM

Input line: Quick one: CCCC/C=C1\CCC(C)(CN(C)C)C1=O (centres undefined)
Output line: > 100 µM

Input line: Quick one: O=[N+]([O-])c1cc2c(c([N+](=O)[O-])c1)NCc1ccccc1O2
Output line: > 100 µM

Input line: Quick one: Cn1ccc2c(C(=O)c3ccccc3)cccc2c1=O
Output line: > 100 µM

Input line: Quick one: COc1cccc(N2C(=O)/C(=C\c3ccccc3)SC2c2cc(OC)c(OC)c(OC)c2)c1 (centres undefined)
Output line: > 100 µM

====

Test system: PC-3 prostate
Assay: NCI tumour cell line growth inhibition, 48 h
observed.property: TGI

compound	result
CC(C)(C)NCC(O)c1ccc(O)c(CO)n1 (stereo not drawn)	> 100 µM

Input line: Give the measured TGI of O=C1C=CC2(O)OCCN(CCO)C2=C1 (stereo not drawn) (tested in a mixture with another compound) .
Output line: > 100 µM

Input line: Quick one: CC1=C(C)C1[N+](=O)[O-]
Output line: > 100 µM

Input line: Quick one: CC(NCCC(=O)N(CCC(=O)N(CCC(=O)N(CCC(=O)N(CCC(=O)N(CCC(=O)N(CCC(=O)N(CCC(=O)N(CCC(=O)N(CCC(=O)O)[C@H](C)c1ccccc1)[C@H](C)c1ccccc1)[C@H](C)c1ccccc1)[C@H](C)c1ccccc1)[C@H](C)c1ccccc1)[C@H](C)c1ccccc1)[C@H](C)c1ccccc1)[C@H](C)c1ccccc1)[C@H](C)c1ccccc1)c1ccccc1 (stereo partly drawn)
Output line: > 75 µM

Input line: Quick one: CC1OC(OC2C(OC(=O)[C@@H]3CC(C)(C)C[C@@H]4C5=CC[C@@H]6[C@@]7(C)C[C@H](O)[C@H](OC8OC(CO)C(O)C(O)C8O)[C@@](C)(CO)C7[C@H](O)C[C@@]6(C)[C@]5(C)C[C@@H](O)[C@H]43)OCC(O)C2O)C(O)C(O)C1O (stereo partly drawn)
Output line: > 15 µM

Input line: Quick one: COc1cccc(-c2nc3ccccc3c(=O)[nH]2)c1OC
Output line: > 100 µM

Input line: Quick one: Cc1cc2[nH]c(=O)c3c4ccccc4cn3c2cc1C
Output line: 25.4 µM

Input line: Quick one: CN(C)CCCNc1c(C#N)[n+]([O-])c2cc(Cl)ccc2[n+]1[O-]
Output line: > 41.3 µM

====

Measured TGI by item
Tested on: HL-60(TB) leukemia
Assay: NCI tumour cell line growth inhibition, 48 h

These recorded examples may help you get a feel for the data.
> print(dat)
                                   compound  measurement.target     result
1  CC(=O)c1cccc(Nc2nc3ccc(Cl)cc3c3[nH]c4ccccc4c23)c1  HL-60(TB) leukemia   > 100 µM
2   COc1ccc(/C(=N\O)c2cc(C)c(OC)c(C)c2)cc1O  HL-60(TB) leukemia  0.0607 µM

Input line: Test system HL-60(TB) leukemia; read-out TGI; what value for O=P1(c2ccccc2)C(c2ccccc2)=CC=C1c1ccccc1 ?
Output line: 9.31 µM

Input line: Quick one: CSc1sc(=S)sc1C(=O)N(C)c1ccccc1
Output line: > 100 µM

Input line: Quick one: COc1ccc(NC(=O)/C(=N/NC(N)=S)C2C(=O)NC(=S)NC2=O)c(OC)c1
Output line: > 100 µM

Input line: Quick one: O=C(O)NCC1CCCCC1 (tested in a mixture with another compound)
Output line: 38.5 µM

Input line: Quick one: O=C1CCCC(=O)N1CCc1c[nH]c2ccccc12
Output line: > 100 µM

Input line: Quick one: COc1c(Br)cc(/C=C(\C#N)c2cccnc2)cc1Br
Output line: > 100 µM

Input line: Quick one: CC(O)c1ccc[n+](Cc2ccccc2)c1 (centres undefined)
Output line: > 400 µM

====

System: NCI-H23 lung
Experiment: NCI tumour cell line growth inhibition, 48 h; in the data active means GI50 below about 0.43 µM; inactive means the rest
// one of active, inactive, no free text

compound	discrete.label
COC(=O)C1CCCN1C(=O)[C@@H]1CCCN1C(=O)[C@H](Cc1c[nH]c2ccccc12)NC(=S)Nc1cc(C(F)(F)F)cc(C(F)(F)F)c1 (stereo not given in full)	inactive
COc1cc(/C=C/C(=O)c2c(C)nc3ccccc3c2/C=C/c2ccc(C)cc2)cc(OC)c1OC	inactive
O=S(=O)(c1cccc2c(Cl)cccc12)N1CCCNCC1	inactive
CNCCNc1c2c(c(NCCNC)c3[nH]ccc13)C(=O)c1ccccc1C2=O	active

Input line: I'd appreciate the recorded outcome for O=C1C=CC[C@H](/C=C/c2ccccc2)O1 from this test.
Output line: inactive

====

Measured TGI by item
System: HOP-62 NSCLC
Test: NCI tumour cell line growth inhibition, 48 h

> print(dat)
                                   compound    result
1  O=C(NCCCCCCNC(=O)OCCSCCn1cc(C(=O)NC(=O)OCc2ccccc2)c(=O)[nH]c1=O)OCCSCCn1cc(C(=O)NC(=O)OCc2ccccc2)c(=O)[nH]c1=O  > 100 µM
2  COC(=O)C1CCCN1C(=O)[C@@H]1CCCN1C(=O)[C@H](Cc1c[nH]c2ccccc12)NC(=S)Nc1cc(C(F)(F)F)cc(C(F)(F)F)c1 (stereo partly drawn)    6.5 µM
3  C[C@]12CCC(=O)C(O)=C1CC[C@@H]1C2CC[C@]2(C)Nc3c(cnn3-c3ccccc3)CC12 (stereo partly drawn)  > 100 µM
4  O=c1[nH]c(=O)c2cc(C3CC(O)C(CO)O3)ccc2[nH]1 (stereo not drawn)  > 100 µM
5  COC(=O)CCC1CCC(c2cc(F)ccc2F)(S(=O)(=O)c2ccc(Cl)cc2)CC1 (stereo not drawn)  > 100 µM

Input line: Test system HOP-62 NSCLC; read-out TGI; what value for C/C=C1/CCC2c3[nH]c4ccccc4c3CCN2C1 (stereo not drawn) ?
Output line: > 100 µM

Input line: Quick one: CCN1C(=O)N(c2ccccc2)C2NC(=S)N(/N=C/C=C/c3ccccc3)C21 (stereo not drawn)
Output line: > 100 µM

Input line: Quick one: N=[N+]=CC(=O)CCC(NC(=O)C(CCC(=O)C=[N+]=N)NC(=O)CCC(N)C(=O)O)C(=O)O (stereo not drawn)
Output line: > 100 µM

Input line: Quick one: Nc1ccc(CCSSCCc2ccc(N)cc2)cc1
Output line: > 100 µM

Input line: Quick one: COc1cc(/C=C/C(=O)c2c(C)nc3ccccc3c2/C=C/c2ccc(C)cc2)cc(OC)c1OC
Output line: 9.94 µM

Input line: Quick one: O=C1CCCC(=O)N1CCc1c[nH]c2ccccc12
Output line: > 100 µM

Input line: Quick one: CSc1sc(=S)sc1C(=O)N(C)c1ccccc1
Output line: > 100 µM

Input line: Quick one: CCCCN(Cc1ccccc1)C(=NC#N)N(Cc1ccccc1)Cc1ccccc1
Output line: 75.3 µM
